- Test system: CCRF-CEM leukemia
- protocol summary: NCI-60 one-dose screen, 48 h
- protocol conditions: 10 µM unless noted
- Method: Growth inhibition of the CCRF-CEM human tumor cell line is measured as a screen for anti-cancer activity. Cells are grown in 96 well plates and exposed to the test compound for 48 hours. Compounds are tested at a single concentration, which is 10^-5 M for most compounds. The reported endpoint is percent growth (GI% or GIPRCNT), where numbers from 0 - 100% represent growth inhibition, and numbers from -100% - 0 represent cell death. For example, a value of 40 represents 60% growth inhibition. […]
Compounds without any hit were thinned out: in the full panel of roughly 83,000, 20% have a hit. Active and inactive are the calls of the source. How the source made its calls: active means growth percent below 10; inactive means the rest. Where a SMILES comes first, the peptide text is derived from it. The star is where a group is joined. Trt = c1ccc(C(c2ccccc2)(c2ccccc2)*)cc1; Cbz = O=C(OCc1ccccc1)*
Possible outcomes: active, inactive

molecule | tested on | class name
CC(C)(C)c1ccc(O)c(C2CCCCC2)c1 | CCRF-CEM leukemia | inactive
COC(=O)C(CSC(c1ccccc1)(c1ccccc1)c1ccccc1)NC(=O)C(CC(N)=O)NC(=O)OCc1ccccc1 (stereo not drawn) (Cbz-Asn-Cys(Trt)-OMe; configuration not given here) | CCRF-CEM leukemia | inactive
N#Cc1ccc([N+](=O)[O-])o1 | CCRF-CEM leukemia | inactive
COc1ccccc1/C=C\C(=O)c1ccccc1 | CCRF-CEM leukemia | inactive
CC(=O)C(=Cc1ccc(C=C(C(C)=O)C(C)=O)cc1)C(C)=O | CCRF-CEM leukemia | active
O=[N+]([O-])c1ccc2c(N=Nc3ccc4ccccc4c3O)c(O)cc(S(=O)(=O)O)c2c1 | CCRF-CEM leukemia | inactive
O=C(/C=C/C=C/c1ccccc1)c1ccco1 | CCRF-CEM leukemia | inactive
CCCCCCC(C)c1ccccc1O (centres undefined) (tested in a mixture with another compound) | CCRF-CEM leukemia | inactive
CCCCCC(CCCCC)C(=O)O | CCRF-CEM leukemia | inactive
CCC(c1cccc(O)c1)C(CC)c1cccc(O)c1 (centres undefined) | CCRF-CEM leukemia | inactive
N#CSCc1ccc(Cl)c(CSC#N)c1 | CCRF-CEM leukemia | inactive
NC(N)=N/N=C/c1ccc([N+](=O)[O-])o1 | CCRF-CEM leukemia | inactive
CC1OC(OC2C(OC3CCC4(C)C(CCC5(C)C4CC=C4C6CC(C)(C)CCC6(CO)C(O)CC45C)C3(C)C)OC(C(=O)O)C(OC3OC(COC4OC(CO)C(O)C(O)C4O)C(O)C(O)C3O)C2O)C(O)C(O)C1O (centres undefined) | CCRF-CEM leukemia | active
O=C1c2ccccc2C(=O)c2sc(Nc3ccc(Cl)cc3)nc21 | CCRF-CEM leukemia | inactive

----------
- Tested on: A498 renal
- protocol summary: NCI-60 one-dose screen, 48 h (100 = growth as untreated, 0 = no growth, -100 = all killed)
- protocol conditions: 10 µM unless noted
This is part of a sample that, as a whole, favours compounds with a hit. Of some 83,000 tested, about 20% had one in any assay.
Parameter: growth. Scope: all listed entries.
property: growth (%)

molecule | property | observed result
COC(=O)c1nc(=S)[nH]c(C(=O)OC)c1C(=O)c1ccccn1 | growth | 145
C1=C(c2ccccc2)C(c2ccc(OCCN3CCCCC3)cc2)Oc2ccccc21 (centres undefined) | growth | 94
CC(C)(C)CC(C)(C)c1ccc(OCCSC(=N)N)cc1 | growth | 60.2
CN(C)c1ccc(N=Nc2cccc3ccccc23)cc1 | growth | 85.3

----------
- Tested on: EKVX NSCLC
- protocol summary: NCI-60 one-dose screen, 48 h
- protocol conditions: 10 µM unless noted
Compounds without any hit were thinned out: in the full panel of roughly 83,000, 20% have a hit. Activity calls are given as the source filed them. How the source made its calls: active means growth percent below 10; inactive means the rest.
Outcome codes: active, inactive

molecule | class name
O=C(Nc1c(Cl)cccc1Cl)Oc1cccc2cccnc12 | active
CC1(C)CC([P+](c2ccccc2)(c2ccccc2)c2ccccc2)=NN1 | inactive
C/C=C1\SC(=S)NC1=O | inactive
CC(=Nc1ccc(N(C)C)cc1)c1ccccc1 | inactive
COc1ccc2nc3cc(Cl)ccc3c(NCCNc3c4ccc(Cl)cc4nc4ccc(OC)cc34)c2c1 | active
CCOc1ccc(-c2nc3ccc(-c4nc5ccc(N6CCN(C)CC6)cc5[nH]4)cc3[nH]2)cc1 | active
Cc1ccc(NS(=O)(=O)c2ccc(C)cc2)cc1 | inactive
CCCCCCC(C)c1ccccc1O (stereo not given) (tested in a mixture with another compound) | inactive
CN(C)c1ccc(C(=C2C=CC(=[N+](C)C)C=C2)c2ccc(N(C)C)cc2)cc1 (tested in a mixture with another compound) | active
CN(C)C(=O)SC1=C(c2c(Cl)cccc2Cl)C(=O)c2ccccc21 | active

----------
Parameter: growth. Scope: all listed entries.
- System: ACHN renal
- protocol summary: NCI-60 one-dose screen, 48 h (100 = growth as untreated, 0 = no growth, -100 = all killed)
- protocol conditions: 10 µM unless noted
This is part of a sample that, as a whole, favours compounds with a hit. Of some 83,000 tested, about 20% had one in any assay.
property: growth (%)

molecule | property | uom | observed result
CN=C(N)N/N=C(\C)c1ccc2c(c1)Cc1cc(/C(C)=N/NC(N)=NC)ccc1-2 | growth | % | -49.9
O=[N+]([O-])c1ccc(N=Nc2ccc(O)cc2O)cc1 | growth | % | 55.5
Oc1c(Cl)cc(Cl)c2cccnc12 | growth | % | 42
Nc1nc(N)c2c(ccc3c2ccn3Cc2cccc([N+](=O)[O-])c2)n1 | growth | % | -97
CN(C)c1ccc(/C=N/N=C(\C#N)[S][Sn]([Cl])([c]2ccccc2)[c]2ccccc2)cc1 | growth | % | -51
C1=C(c2ccccc2)C(c2ccc(OCCN3CCCCC3)cc2)Oc2ccccc21 (configuration not stated) | growth | % | 71.5
Cc1cc(C(C)(CC(C)C)c2ccc(O)c(C)c2)ccc1O | growth | % | 83.3
N#CC1C(=O)SC2c3ccccc3C(=O)c3ccccc3C12 (configuration not stated) | growth | % | 114
O=[N+]([O-])c1ccc2c(N=Nc3ccc4ccccc4c3O)c(O)cc(S(=O)(=O)O)c2c1 | growth | % | 78.7
CN(C)CCOc1ccc2c(c1)C(=O)/C(=C\c1ncc([N+](=O)[O-])n1C)C2 | growth | % | -31.9
CN(Cc1cnc2nc(N)nc(N)c2n1)c1ccc(C(=O)NC(CCC(=O)O)C(=O)O)cc1 (configuration not stated) | growth | % | 26.8
Cc1ccnc2c1ccc1c(C)ccnc12 | growth | % | 11.3

----------
- Tested on: 786-0 renal
- protocol summary: NCI-60 one-dose screen, 48 h
- protocol conditions: 10 µM unless noted
Compounds without any hit were thinned out: in the full panel of roughly 83,000, 20% have a hit. Active and inactive are the calls of the source. The calls were made as follows: active = growth percent below 10; inactive = the rest.
Outcomes: active, inactive

compound | tested on | class name
O=C(O)c1ccc2c3c(ncnc13)-c1ccccc1C2=O | 786-0 renal | inactive
O=C1NC(=O)/C(=C/C=C/c2ccccc2)S1 | 786-0 renal | active
CC1OC2CC(=O)OC2C2=C1C(=O)c1c(O)cccc1C2=O (centres undefined) | 786-0 renal | active
O=C1OCc2cccc3cccc1c23 | 786-0 renal | inactive
CC(=O)C(=Cc1ccc(C=C(C(C)=O)C(C)=O)cc1)C(C)=O | 786-0 renal | active
CN1c2ccccc2C(C)(C)C12C=Cc1cc(O)ccc1O2 (centres undefined) | 786-0 renal | inactive
O=C1c2ccccc2C(=O)c2sc(Nc3cccc(Cl)c3)nc21 | 786-0 renal | active
O=C1c2ccccc2C(=O)c2sc(Nc3ccc(Cl)cc3)nc21 | 786-0 renal | inactive
N[C@H](C(=O)O)[C@@H]1CC(Cl)=NO1 | 786-0 renal | inactive

----------
- Test system: RPMI-8226 leukemia
- protocol summary: NCI-60 one-dose screen, 48 h
- protocol conditions: 10 µM unless noted
About 83,000 compounds went through this panel and 20% of them were active in at least one assay; those are over-represented in the sample as a whole. Active and inactive are the calls of the source. The calls were made as follows: active = growth percent below 10; inactive = the rest.
Outcome codes: 1.0 = active, 0.0 = inactive

molecule | class name
O[C@H]1[C@H]2c3cc4c(cc3CN3CCC(=C[C@@H]1O)[C@H]23)OCO4 | 0.0
N#CSCc1ccc(Cl)c(CSC#N)c1 | 0.0
Oc1ccc(/C=N/NC(=S)Nc2ccccc2)nc1 | 1.0
CCCCCCCCCCCCCCCCOP(=O)([O-])OCC[N+](C)(C)C | 1.0
NC1=CC(=O)c2ccccc2C1=O | 0.0
Nc1ccc(SSc2ccc(N)cc2)cc1 | 0.0
O=C(/C=C/C=C/c1ccccc1)c1ccco1 | 0.0
O=C(Nc1ccccc1)Oc1c(Cl)c(Cl)c(Cl)c(Cl)c1Cl | 0.0
C=CCOc1ccc(N=NC(C#N)C#N)cc1 | 1.0
CCCCCC(CCCCC)C(=O)O | 0.0
CCC(CCCN(CC)CCc1ccccc1)OC(=O)c1cc(OC)c(OC)c(OC)c1 (stereo unspecified) | 0.0
